# Test system: CCRIS mutagenicity, Ames/micronucleus/aberration tests
# protocolDetails: CCRIS mutagenicity studies
# conditionParameters: Test System: AMES SALMONELLA TYPHIMURIUM; Strain/Indicator: TA100; Metabolic Activation: NONE; Method: STANDARD PLATE
# Excerpt: The CCRIS database contains chemical records with carcinogenicity, mutagenicity, tumor promotion, and tumor inhibition test results. It was developed by the National Cancer Institute (NCI). Data are derived from studies cited in primary journals, current awareness tools, NCI reports, and other sources. Test results have been reviewed by experts in carcinogenesis and mutagenesis. CCRIS provides historical information from the years 1985 - 2011. It is no longer updated. […]
Active and inactive are the calls of the source. How the calls were made is not given here.
Returns: one label drawn from 1 (yes) for active, 0 (no) for inactive

[[record]]
compound = "O=[N+]([O-])c1ccc(NO)cc1"
assignedlabel = "1 (yes)"

[[record]]
compound = "C[C@H](CCC(=O)O)[C@H]1CC[C@H]2[C@@H]3[C@@H](O)C[C@@H]4C[C@H](O)CC[C@]4(C)[C@H]3CC[C@]12C"
assignedlabel = "0 (no)"

[[record]]
compound = "Cc1nc2c(c3[nH]c4ccccc4c13)C(=O)C=C(N1CC1)C2=O"
assignedlabel = "1 (yes)"


Kindly provide the recorded test outcome for the following compound: "O=C1CCC(=O)N1c1ccc(Cl)cc1"
0 (no)

Call for entry CCCCCCC1CO1 (configuration not stated) :
0 (no)

How was "C=CCCCCCCCCC" classified in this test?
0 (no)

For CCCCCN1C2c3ccccc3-c3ccccc3C21 (configuration not stated) , which call appears in the assay record?
1 (yes)

Entry "Nc1nc2ccc([N+](=O)[O-])cc2s1" : call = ?
0 (no)

Entry "O=CN(O)c1ccc(F)cc1" : call = ?
0 (no)

Hi, do you know how "COc1ccc2c(ccc3oc([N+](=O)[O-])cc32)c1" came out in this test?
1 (yes)

Which outcome was assigned to "COc1cc(N=Nc2ccc(N(CCO)CCO)cc2)ccc1N=Nc1c(S(=O)(=O)O)cc2ccc(N)cc2c1O" in this test?
0 (no)

Lab log entry: "O=C(O)c1ccc(O)cc1" — outcome as called in the assay?
0 (no)

* * *

# System: CCRIS mutagenicity, Ames/micronucleus/aberration tests
# protocolDetails: CCRIS mutagenicity studies
# conditionParameters: Test System: AMES SALMONELLA TYPHIMURIUM; Strain/Indicator: TA98; Metabolic Activation: RAT, LIVER, S-9, AROCLOR 1254 (30%); Method: PREINCUBATION
The source made the active and inactive calls. How the calls were made is not given here.
// allowed return values: active, inactive

The examples below pair each entry with its known result.
[[record]]
compound = "Cn1cnc([N+](=O)[O-])c1Sc1ncnc2nc[nH]c12"
assignedlabel = "inactive"

[[record]]
compound = "O=[N+]([O-])c1c(O)c(Cl)cc(Cl)c1Cl"
assignedlabel = "inactive"

[[record]]
compound = "CCNc1nc(Cl)nc(NC(C)C)n1"
assignedlabel = "inactive"

[[record]]
compound = "CCC(CO)[N+](=O)[O-] (centres undefined)"
assignedlabel = "inactive"

[[record]]
compound = "N#CCC#N"
assignedlabel = "inactive"


API: the following record is the query input.
For "Nc1ccc(N)cc1" , what call appears in the results of this test?
active

* * *

# Tested on: CCRIS mutagenicity, Ames/micronucleus/aberration tests
# protocolDetails: CCRIS mutagenicity studies
# conditionParameters: Test System: AMES SALMONELLA TYPHIMURIUM; Strain/Indicator: TA1535; Metabolic Activation: NONE; Method: PREINCUBATION
# Source text: The CCRIS database contains chemical records with carcinogenicity, mutagenicity, tumor promotion, and tumor inhibition test results. It was developed by the National Cancer Institute (NCI). Data are derived from studies cited in primary journals, current awareness tools, NCI reports, and other sources. Test results have been reviewed by experts in carcinogenesis and mutagenesis. CCRIS provides historical information from the years 1985 - 2011. It is no longer updated. […]
Active and inactive are the calls of the source. How the calls were made is not given here.
observable: mutagenic call

[[record]]
compound = "NN=C(N)N"
targetsystem = "CCRIS mutagenicity, Ames/micronucleus/aberration tests"
measuredvalue = "inactive; negative"

[[record]]
compound = "Cc1ccco1"
targetsystem = "CCRIS mutagenicity, Ames/micronucleus/aberration tests"
measuredvalue = "inactive; negative"

[[record]]
compound = "O=S(O)S(=O)O"
targetsystem = "CCRIS mutagenicity, Ames/micronucleus/aberration tests"
measuredvalue = "inactive; negative"

[[record]]
compound = "OCCCBr"
targetsystem = "CCRIS mutagenicity, Ames/micronucleus/aberration tests"
measuredvalue = "active; positive"

[[record]]
compound = "CCCCCCCCCCCCc1ccccc1"
targetsystem = "CCRIS mutagenicity, Ames/micronucleus/aberration tests"
measuredvalue = "inactive; negative"


Entry "Nc1c(Br)cc([N+](=O)[O-])cc1[N+](=O)[O-]" under CCRIS mutagenicity, Ames/micronucleus/aberration tests had mutagenic call of inactive; negative

Case "C[Si]1(C)O[Si](C)(C)O[Si](C)(C)O[Si](C)(C)O1" , CCRIS mutagenicity, Ames/micronucleus/aberration tests, mutagenic call recorded as inactive; negative

Reading of mutagenic call for "CCN(CC)c1ccc2c(C)cc(=O)oc2c1" with CCRIS mutagenicity, Ames/micronucleus/aberration tests: inactive; negative

Bench note, CCRIS mutagenicity, Ames/micronucleus/aberration tests: "O=P(Oc1ccccc1)(Oc1ccccc1)Oc1ccccc1" , mutagenic call reads inactive; negative

Result for "O=C=NCCCCCCN=C=O" , tested on CCRIS mutagenicity, Ames/micronucleus/aberration tests, mutagenic call: inactive; negative

# mutagenic call measured on CCRIS mutagenicity, Ames/micronucleus/aberration tests for item "COc1ccc(O)cc1" = inactive; negative

Given the compound "O=c1ccc2ccccc2o1" and test system CCRIS mutagenicity, Ames/micronucleus/aberration tests, the measured mutagenic call is inactive; negative

// returns mutagenic call for "N#CCC#N" with CCRIS mutagenicity, Ames/micronucleus/aberration tests; value = inactive; negative

Observed mutagenic call, CCRIS mutagenicity, Ames/micronucleus/aberration tests, "CC(C)CN" : inactive; negative
